Provenance of the data: BigSolDB 2.1

condition_set: in isopropanol, 308.15 K

| smiles_string | solubility (mole fraction) |
| --- | --- |
| CC(=O)c1c(C)c([N+](=O)[O-])c(C(C)(C)C)c([N+](=O)[O-])c1C | 0.0063 |

###

condition_set: in DMF, 298.15 K

| smiles_string | solubility (mole fraction) |
| --- | --- |
| CC(=O)c1c(C)c([N+](=O)[O-])c(C(C)(C)C)c([N+](=O)[O-])c1C | 0.128 |

###

condition_set: in isopropanol, 288.15 K

| smiles_string | solubility (mole fraction) |
| --- | --- |
| CC(=O)c1c(C)c([N+](=O)[O-])c(C(C)(C)C)c([N+](=O)[O-])c1C | 0.00258 |
